Target: T1, hIL-4Rα on cells (human, UniProt P24394 26-825)
T1 sequence: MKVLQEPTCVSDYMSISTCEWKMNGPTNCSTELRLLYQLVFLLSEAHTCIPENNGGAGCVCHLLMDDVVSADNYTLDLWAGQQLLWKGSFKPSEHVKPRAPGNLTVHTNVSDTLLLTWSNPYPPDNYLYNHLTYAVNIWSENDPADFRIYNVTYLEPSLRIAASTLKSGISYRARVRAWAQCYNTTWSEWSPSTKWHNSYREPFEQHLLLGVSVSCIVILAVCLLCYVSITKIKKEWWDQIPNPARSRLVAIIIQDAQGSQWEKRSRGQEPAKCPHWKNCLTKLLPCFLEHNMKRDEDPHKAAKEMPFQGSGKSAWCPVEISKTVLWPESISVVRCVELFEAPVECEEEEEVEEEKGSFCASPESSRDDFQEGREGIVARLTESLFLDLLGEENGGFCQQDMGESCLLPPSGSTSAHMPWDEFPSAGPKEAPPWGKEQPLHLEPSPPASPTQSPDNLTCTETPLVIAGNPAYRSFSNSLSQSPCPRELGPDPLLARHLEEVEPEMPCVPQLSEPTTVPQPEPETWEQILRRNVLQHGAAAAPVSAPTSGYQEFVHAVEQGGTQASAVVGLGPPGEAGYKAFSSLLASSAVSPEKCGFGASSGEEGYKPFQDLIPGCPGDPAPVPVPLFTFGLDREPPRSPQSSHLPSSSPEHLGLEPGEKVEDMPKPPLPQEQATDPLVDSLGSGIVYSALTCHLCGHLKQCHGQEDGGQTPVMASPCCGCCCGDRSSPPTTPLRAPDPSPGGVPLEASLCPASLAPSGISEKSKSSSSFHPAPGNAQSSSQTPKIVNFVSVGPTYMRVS
Assay: cell-based or functional assay
assay_endpoint: Inhibition of IL-4 induced TARC IC50
Answer with the number, then the unit.

*Q* Supply reported Inhibition of IL-4 induced TARC IC50 belonging to this binder: Construct 15 (mAb423) with IgG1 YTE LALA heavy chain constant region (antibody, V domains shown) VH: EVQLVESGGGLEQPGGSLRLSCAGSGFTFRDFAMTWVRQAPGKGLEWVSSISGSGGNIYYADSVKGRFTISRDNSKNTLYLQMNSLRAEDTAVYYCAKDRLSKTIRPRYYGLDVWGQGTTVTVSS VL: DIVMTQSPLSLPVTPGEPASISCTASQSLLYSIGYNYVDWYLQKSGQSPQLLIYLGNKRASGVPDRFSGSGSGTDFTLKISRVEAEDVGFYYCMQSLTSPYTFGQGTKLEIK
*A* 0.127 nM

The reported numbers originate from patent US20260193366A1.
